System: SF-295 CNS
Assay: NCI-60 one-dose screen, 48 h (100 = growth as untreated, 0 = no growth, -100 = all killed)
Conditions: 10 µM unless noted
Method: Cells are grown in 96 well plates and exposed to the test compound for 48 hours. Compounds are tested at a single concentration, which is 10^-5 M for most compounds. The reported endpoint is percent growth (GI% or GIPRCNT), where numbers from 0 - 100% represent growth inhibition, and numbers from -100% - 0 represent cell death. For example, a value of 40 represents 60% growth inhibition. A value of 0 means no net growth occurred over the course of the experiment. […]
The panel holds about 83,000 compounds, 20% with a hit somewhere; the sample as a whole holds those more often.
Outcome: criterion met for growth of at least 40%; criterion not met for anything lower.

Say whether "Nc1nc(-c2cccc([N+](=O)[O-])c2)c(N=Nc2ccc(Br)cc2)s1" shows growth of 40% or more.
criterion not met

----------
Tested on: PC-3 prostate
Assay: NCI-60 one-dose screen, 48 h (100 = growth as untreated, 0 = no growth, -100 = all killed)
Conditions: 10 µM unless noted
This is part of a sample that, as a whole, favours compounds with a hit. Of some 83,000 tested, about 20% had one in any assay.
Mark each entry t if its growth sits below 40%, and f for all others.

Past entries and their recorded results:
>  <COMPOUND>
COc1ccc(CCOc2cc3c(cc2OC)CCN(C(=O)NCc2cocn2)C3c2ccc(C)cc2C)cc1 (centres undefined)

>  <LABEL CLASS>
t

$$$$
>  <COMPOUND>
CC(=O)c1ccc(Nc2nc(SCC(C)C)nc(-c3ccc(F)cc3)c2C#N)cc1

>  <LABEL CLASS>
f

$$$$
>  <COMPOUND>
Cc1ccc(-c2cc3nc(C(Cl)Cl)nc(C)n3n2)cc1

>  <LABEL CLASS>
f

$$$$
>  <COMPOUND>
C=CCn1c(SCC(=O)Nc2ccc(C(=O)/C=C/c3cccc([N+](=O)[O-])c3)cc2)nnc1-c1c[nH]c2ccccc12

>  <LABEL CLASS>
f

$$$$
>  <COMPOUND>
COc1ccc(OC)c(-c2nc(SCC(=O)c3ccc(Br)cc3)nc(Nc3ccc(S(N)(=O)=O)cc3)c2C#N)c1

>  <LABEL CLASS>
t

$$$$
>  <COMPOUND>
COc1cc(-c2nn(C(C)(C)C)cc2-c2ccnc(NCCCNS(=O)(=O)c3ccc(C)cc3)n2)ccc1Cl

>  <LABEL CLASS>
f

$$$$

Is the reported growth for "COc1cc(-c2nn(C(C)(C)C)cc2-c2ccnc(NCCCNS(=O)(=O)c3ccccc3)n2)ccc1Cl" strictly below 40%?
f

# repeat for "C[C@H](CCC(=O)NCc1ccc(C(=O)Nc2ccccc2N)cc1)[C@H]1CC[C@H]2[C@@H]3[C@@H](O)C[C@@H]4C[C@H](O)CC[C@]4(C)[C@H]3CC[C@]12C"
f

# repeat for CCNC(=O)N1CCc2cc(OC)c(OCCc3ccc(OC)nc3)cc2C1c1ccc(C)cc1C (centres undefined)
t

# repeat for CCCn1cnc2c(c1=N)C(c1ccc(Cl)cc1)c1sc3c(C)cccc3c1O2 (centres undefined)
t

# repeat for "Cc1ccc(-c2nnc(SCc3ccc(O)c4ncccc34)o2)cc1"
t

# repeat for CC(O)c1cc2ccccc2c(=O)o1 (centres undefined)
f

# repeat for "Nc1nc(-c2cccc([N+](=O)[O-])c2)c(N=Nc2ccccc2)s1"
f

# repeat for "Cc1ccc(S(=O)(=O)N(CC[C@@H]2C[C@H]2c2cc3ccccc3o2)S(=O)(=O)c2ccc(C)cc2)cc1"
f

# repeat for "Oc1cccc2ccc(-c3nnc(SCc4ccc(O)c5ncccc45)o3)nc12"
t

# repeat for CC1=CC(=O)C2=C(C)CC(OC(=O)CCc3ccccc3)[C@@H]3[C@H](OC(=O)[C@@H]3C)[C@@H]12 (some centres undefined)
f

# repeat for "CC(C)(C)c1ccc(-c2nnc(-c3nc4ccccc4nc3Cl)o2)cc1"
f

# repeat for "O=C(CN1CCN(c2cc(=O)[nH]c3ccc(F)cc23)CC1)Nc1ccc(Cl)cc1"
f

# repeat for "CC/C(=C/c1c(O)cccc1OC)c1ccc2c(OC)cccc2[o+]1"
f

----------
# growth per record follows
Test system: ACHN renal
Experiment: NCI-60 one-dose screen, 48 h (100 = growth as untreated, 0 = no growth, -100 = all killed)
Conditions: 10 µM unless noted
This is part of a sample that, as a whole, favours compounds with a hit. Of some 83,000 tested, about 20% had one in any assay.
Write the number in % without appending the unit.

Sample answers from the record:
>  <COMPOUND>
FC(F)(F)c1cc(Nc2cccc(Oc3ccc(NC4=NCCN4)nc3)c2)ccc1Cl

>  <UNIT TEXT>
%

>  <READOUT NUMBER>
1.37

$$$$
>  <COMPOUND>
COc1cc2c(cc1OC)C(Sc1ccc(F)cc1)c1c(nc(N)c(C#N)c1N)O2 (stereo not given)

>  <UNIT TEXT>
%

>  <READOUT NUMBER>
-99.3

$$$$
>  <COMPOUND>
Cn1ccnc1C(=O)/C=C/c1ccc(CNC(=O)c2ccc(S(F)(F)(F)(F)F)cc2)cc1

>  <UNIT TEXT>
%

>  <READOUT NUMBER>
49.8

$$$$

Request the reported growth associated with CC(=O)N1N=C(c2cccc(-n3cccc3)c2)CC1c1cccc(F)c1 (stereo not given)
101

# repeat for COc1cc2c(cc1OC)C(Sc1ccc(C)cc1)c1c(nc(N)c(C#N)c1N)O2 (stereo not given)
-95.8

# repeat for "NS(=O)(=O)c1ccc(Nc2nc(N/N=C/CCc3ccccc3)nc(Nc3ccccc3)n2)cc1"
101

# repeat for "NS(=O)(=O)c1ccc(Nc2nc(N/N=C/c3c[nH]c4ccccc34)nc(Nc3ccccc3)n2)cc1"
81.2

----------
Test system: TK-10 renal
Test: NCI-60 one-dose screen, 48 h (100 = growth as untreated, 0 = no growth, -100 = all killed)
Conditions: 10 µM unless noted
Protocol: Growth inhibition of the TK-10 human tumor cell line is measured as a screen for anti-cancer activity. Cells are grown in 96 well plates and exposed to the test compound for 48 hours. Compounds are tested at a single concentration, which is 10^-5 M for most compounds. The reported endpoint is percent growth (GI% or GIPRCNT), where numbers from 0 - 100% represent growth inhibition, and numbers from -100% - 0 represent cell death. For example, a value of 40 represents 60% growth inhibition. […]
About 83,000 compounds went through this panel and 20% of them were active in at least one assay; those are over-represented in the sample as a whole.
QUANTITY MEASURED: growth (%)
Write the number in % without appending the unit.

Sample answers from the record:
>  <COMPOUND>
O=C1[C@H]2Cc3c([nH]c4ccccc34)[C@@H](c3ccc(Br)cc3)N2C(=O)CN1C1CCN(CC2CCCCC2)CC1

>  <TARGET SYSTEM>
TK-10 renal

>  <UNIT TEXT>
%

>  <growth>
-85.2

$$$$
>  <COMPOUND>
CCCCCc1ccc(S(=O)(=O)Nc2cc(-c3csc(NC(=O)CN4CCN(C)CC4)n3)ccc2OC)cc1

>  <TARGET SYSTEM>
TK-10 renal

>  <UNIT TEXT>
%

>  <growth>
103

$$$$
>  <COMPOUND>
COc1ccccc1-n1cc(C#N)c(N)c1C(=O)c1ccc(Cl)cc1

>  <TARGET SYSTEM>
TK-10 renal

>  <UNIT TEXT>
%

>  <growth>
107

$$$$
>  <COMPOUND>
Cc1ccc2c(c1)C13C(=C2Br)CCCN1C(=O)c1ccccc13 (centres undefined)

>  <TARGET SYSTEM>
TK-10 renal

>  <UNIT TEXT>
%

>  <growth>
99.9

$$$$
>  <COMPOUND>
C=C=COc1cccc(/C(N)=N/C(N)=N/c2nc3ccccc3s2)c1

>  <TARGET SYSTEM>
TK-10 renal

>  <UNIT TEXT>
%

>  <growth>
133

$$$$

Request the reported growth associated with "COc1ccc(/C=C/C(=O)c2cccc(NC(=O)CSc3nc4ccccc4c(=O)n3-c3ccccc3)c2)cc1OC"
125

# repeat for COc1cc2c(cc1OC)C(Sc1ccc(F)cc1)c1c(nc(N)c(C#N)c1N)O2 (centres undefined)
-30.1

# repeat for "CCCCc1nc(/C=N/Nc2nc(Nc3ccccc3)nc(Nc3ccc(S(N)(=O)=O)cc3)n2)c(Cl)[nH]1"
112

# repeat for c1ccc(C(c2nc3ncncc3[nH]2)N2CSc3nc4ncncc4n3C2)cc1 (centres undefined)
48.9

----------
# growth per record follows
Tested on: SN12C renal
Test: NCI-60 one-dose screen, 48 h (100 = growth as untreated, 0 = no growth, -100 = all killed)
Details: 10 µM unless noted
The panel holds about 83,000 compounds, 20% with a hit somewhere; the sample as a whole holds those more often.
Write the number in % without appending the unit.

Sample answers from the record:
>  <COMPOUND>
COc1cc(-c2nc(SCCC(C)C)nc(NNC(=O)c3ccncc3)c2C#N)cc(OC)c1OC

>  <READOUT NUMBER>
60.4

$$$$
>  <COMPOUND>
Cn1ccnc1C(=O)/C=C/c1ccc(CNC(=O)c2c(F)c(F)c(F)c(F)c2F)cc1

>  <READOUT NUMBER>
44.5

$$$$
>  <COMPOUND>
C=C(C=O)[C@@H]1CC[C@]2(COC(C)=O)CC[C@]3(C)C(CC[C@@H]4[C@@]5(C)CC[C@H](OC(C)=O)C(C)(C)[C@@H]5CC[C@]43C)[C@@H]12 (stereo not given in full)

>  <READOUT NUMBER>
1.13

$$$$
>  <COMPOUND>
O=c1[nH]c2ccccc2cc1CSc1ccccc1Nc1nccc(-c2ccc(Cl)cc2)n1

>  <READOUT NUMBER>
94.9

$$$$

Proceed to the following item.
Request the reported growth associated with "O=C1[C@H]2Cc3c([nH]c4ccccc34)[C@@H](c3ccc(Cl)cc3)N2C(=O)CN1C1CCN(Cc2ccccc2)CC1"
45.9
